Values compiled from PubChem BioAssay (Tox21).

target: Estrogen receptor beta (Homo sapiens) (UniProt Q92731); assay: qHTS assay to identify small molecule antagonists of the estrogen receptor beta (ER-beta) signaling pathway (AID 1259378); conditions: ER-beta-UAS-bla HEK293T, beta-lactamase FRET ratio, 16 h; series mostly up to 92.4 µM
Sequence (Q92731 whole entry, looked up): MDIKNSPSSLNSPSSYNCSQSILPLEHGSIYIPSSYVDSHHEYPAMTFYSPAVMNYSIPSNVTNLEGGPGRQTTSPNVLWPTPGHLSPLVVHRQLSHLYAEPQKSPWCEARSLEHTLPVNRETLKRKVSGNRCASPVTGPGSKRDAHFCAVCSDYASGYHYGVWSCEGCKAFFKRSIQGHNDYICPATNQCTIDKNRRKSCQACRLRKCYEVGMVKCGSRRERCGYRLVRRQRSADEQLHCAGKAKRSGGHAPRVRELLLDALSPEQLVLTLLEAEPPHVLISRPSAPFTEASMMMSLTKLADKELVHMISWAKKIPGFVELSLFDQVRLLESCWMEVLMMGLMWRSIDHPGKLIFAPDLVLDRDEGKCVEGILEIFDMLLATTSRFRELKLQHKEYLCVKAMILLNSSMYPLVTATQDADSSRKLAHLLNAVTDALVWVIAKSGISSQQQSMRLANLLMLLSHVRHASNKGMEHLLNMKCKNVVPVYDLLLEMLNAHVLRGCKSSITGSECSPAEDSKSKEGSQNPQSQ
Results filed as inconclusive are left out. Activity calls are given as the source filed them. Calls come from the whole dose curve; as a rule, active = well fitted inhibition curve with a large enough effect in the signal ratio in the repeat runs (not every such curve was filed as active); inconclusive = weak or mixed curves, or effect the other way; inactive = no such curve, though single readings can be large or run the other way; the % refers to the signal ratio.
Bench note: report the call from active, inactive

Prompt: Could you please tell me the result logged for COc1ccc(C(=O)c2ccccc2O)c(O)c1 in this assay?
Response: inactive

Prompt: Could you please tell me the result logged for CCO[Si](CCCNC(N)=O)(OCC)OCC in this assay?
Response: inactive

Prompt: Could you please tell me the result logged for CCC(=O)O[C@H]1[C@H](O[C@@H]2[C@@H](C)[C@H](O[C@H]3C[C@@](C)(OC)[C@@H](O)[C@H](C)O3)[C@@H](C)C(=O)O[C@H](CC)[C@@](C)(O)[C@H](O)[C@@H](C)C(=O)[C@H](C)C[C@@]2(C)O)O[C@H](C)C[C@@H]1N(C)C in this assay?
Response: inactive

Prompt: Could you please tell me the result logged for CC/C=C\C/C=C\C/C=C\CCCCCCCC(=O)O in this assay?
Response: inactive

Prompt: Could you please tell me the result logged for COC(=O)C(C)Oc1ccc(Oc2ncc(C(F)(F)F)cc2Cl)cc1 (stereo not given) in this assay?
Response: inactive

Prompt: Could you please tell me the result logged for COC(=O)CC(=O)OC in this assay?
Response: inactive

Prompt: Could you please tell me the result logged for FC(F)(F)C(Cl)Br (stereo not given) in this assay?
Response: inactive

Prompt: Could you please tell me the result logged for CC(C)=CCO in this assay?
Response: inactive

Prompt: Could you please tell me the result logged for O=C(O)CCCC(=O)O in this assay?
Response: inactive

Prompt: Could you please tell me the result logged for CN(C)C in this assay?
Response: inactive

Prompt: Could you please tell me the result logged for Brc1nc2ccccc2s1 in this assay?
Response: inactive

Prompt: Could you please tell me the result logged for NCCOCCO in this assay?
Response: inactive

Prompt: Could you please tell me the result logged for CC(=O)[C@H]1CC[C@H]2[C@@H]3CC=C4C[C@@H](O)CC[C@]4(C)[C@H]3CC[C@]12C in this assay?
Response: active

Prompt: Could you please tell me the result logged for CC1(C)NC(=O)N(c2ccc([N+](=O)[O-])c(C(F)(F)F)c2)C1=O in this assay?
Response: inactive

Prompt: Could you please tell me the result logged for C1COCCN1 in this assay?
Response: inactive

Prompt: Could you please tell me the result logged for OC[C@H]1O[C@@H]2O[C@H]3[C@H](O)[C@@H](O)[C@@H](O[C@H]4[C@H](O)[C@@H](O)[C@@H](O[C@H]5[C@H](O)[C@@H](O)[C@@H](O[C@H]6[C@H](O)[C@@H](O)[C@@H](O[C@H]7[C@H](O)[C@@H](O)[C@@H](O[C@H]1[C@H](O)[C@H]2O)O[C@@H]7CO)O[C@@H]6CO)O[C@@H]5CO)O[C@@H]4CO)O[C@@H]3CO in this assay?
Response: inactive

Prompt: Could you please tell me the result logged for Cc1ccc2c(c1)C(=O)OC2=O in this assay?
Response: inactive

Prompt: Could you please tell me the result logged for Cc1ccc(N)c([N+](=O)[O-])c1 in this assay?
Response: inactive

Prompt: Could you please tell me the result logged for O=[Se](O)O in this assay?
Response: inactive

Prompt: Could you please tell me the result logged for O=C(CCCN1CCC(O)(c2ccc(Cl)cc2)CC1)c1ccc(F)cc1 in this assay?
Response: inactive

Prompt: Could you please tell me the result logged for O=S1(=O)CCCO1 in this assay?
Response: inactive

Prompt: Could you please tell me the result logged for Cc1ccc(C(C)(C)C)c(O)c1 in this assay?
Response: inactive

Prompt: Could you please tell me the result logged for c1ccc2c(c1)[nH]c1ccccc12 in this assay?
Response: inactive

Prompt: Could you please tell me the result logged for CC1=CC(C)(C)Nc2ccccc21 in this assay?
Response: inactive

Prompt: Could you please tell me the result logged for [O-]/[N+](=N\O)c1ccccc1 in this assay?
Response: inactive
